test: Inhibition of prostaglandin synthetase
pIC50: −log10 of the molar value.
# pIC50 annotations

MOLECULE | pIC50
CNC(=O)c1c(C)c2c(c(C(=O)NC)c1-c1ccccc1OC)Nc1ccccc1S2 | 4.66
CNC(=O)C1=C(C)C2=C(Nc3ccccc3S2)C(C(=O)NC)C1c1ccccc1Cl (stereo unspecified) | 4.80
CNC(=O)c1c(C)c2c(c(C(=O)NC)c1-c1ccc(OC)cc1)Nc1ccccc1S2 | 4.74
CNC(=O)C1=C(C)C2=C(Nc3ccccc3S2)C(C(=O)NC)C1c1ccc(OC)cc1 (stereo unspecified) | 4.70
CNC(=O)c1c(C)c2c(c(C(=O)NC)c1-c1ccccc1)Nc1ccccc1S2 | 4.74
CNC(=O)C1=C(C)C2=C(Nc3ccccc3S2)C(C(=O)NC)C1c1ccccc1 (stereo unspecified) | 4.74
CNC(=O)c1c(C)c2c(c(C(=O)NC)c1-c1ccc3c(c1)OCO3)Nc1ccccc1S2 | 4.62
CNC(=O)C1=C(C)C2=C(Nc3ccccc3S2)C(C(=O)NC)C1c1ccccc1C (stereo unspecified) | 4.68
CNC(=O)c1c(C)c2c(c(C(=O)NC)c1-c1ccccc1C)Nc1ccccc1S2 | 4.68
CNC(=O)C1=C(C)C2=C(Nc3ccccc3S2)C(C(=O)NC)C1c1ccc([N+](=O)[O-])cc1 (stereo unspecified) | 4.55
CNC(=O)C1=C(C)C2=C(Nc3ccccc3S2)C(C(=O)NC)C1c1ccccc1OC (stereo unspecified) | 4.70
CNC(=O)c1c(C)c2c(c(C(=O)NC)c1-c1ccccc1Cl)Nc1ccccc1S2 | 4.82
CNC(=O)C1=C(C)C2=C(Nc3ccccc3S2)C(C(=O)NC)C1c1ccc(Cl)cc1 (stereo unspecified) | 4.55
CNC(=O)C1=C(C)C2=C(Nc3ccccc3S2)C(C(=O)NC)C1c1ccc2c(c1)OCO2 (stereo unspecified) | 4.55
CNC(=O)c1c(C)c2c(c(C(=O)NC)c1-c1ccc(Cl)cc1)Nc1ccccc1S2 | 4.64
CC(=O)Oc1ccccc1C(=O)O [ASPIRIN] | 4.62
